subjectOfTest: human TLR9 (Homo sapiens (Human))
Sequence (Q9NR96 26-1032): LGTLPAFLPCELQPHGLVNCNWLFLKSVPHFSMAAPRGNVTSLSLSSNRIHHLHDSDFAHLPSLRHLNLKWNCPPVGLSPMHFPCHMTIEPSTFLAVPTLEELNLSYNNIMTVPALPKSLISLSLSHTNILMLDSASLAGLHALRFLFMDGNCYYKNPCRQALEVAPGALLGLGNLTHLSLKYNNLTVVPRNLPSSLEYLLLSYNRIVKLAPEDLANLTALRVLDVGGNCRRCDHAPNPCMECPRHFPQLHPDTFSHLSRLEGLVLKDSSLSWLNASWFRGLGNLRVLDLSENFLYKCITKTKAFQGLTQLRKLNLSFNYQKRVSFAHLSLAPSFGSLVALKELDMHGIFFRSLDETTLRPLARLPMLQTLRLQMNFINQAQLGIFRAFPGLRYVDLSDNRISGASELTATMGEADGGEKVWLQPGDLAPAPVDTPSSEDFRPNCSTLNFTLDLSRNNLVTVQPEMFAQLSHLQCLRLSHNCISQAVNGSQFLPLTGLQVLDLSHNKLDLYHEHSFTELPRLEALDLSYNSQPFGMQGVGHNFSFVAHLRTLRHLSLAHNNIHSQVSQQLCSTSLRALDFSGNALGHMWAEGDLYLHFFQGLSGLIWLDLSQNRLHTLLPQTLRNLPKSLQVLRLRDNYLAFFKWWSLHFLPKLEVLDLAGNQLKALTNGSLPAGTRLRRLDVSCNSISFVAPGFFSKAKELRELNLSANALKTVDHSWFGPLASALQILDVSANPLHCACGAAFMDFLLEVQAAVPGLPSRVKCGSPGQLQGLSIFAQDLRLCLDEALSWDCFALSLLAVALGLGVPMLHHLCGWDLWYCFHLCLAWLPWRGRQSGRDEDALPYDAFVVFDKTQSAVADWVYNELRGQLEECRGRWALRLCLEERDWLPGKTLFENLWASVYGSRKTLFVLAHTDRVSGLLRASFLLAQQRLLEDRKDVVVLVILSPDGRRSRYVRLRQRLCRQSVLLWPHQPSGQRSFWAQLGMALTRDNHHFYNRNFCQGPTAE
measurementDescription: TLR9 inhibition reporter assay (HEK-Blue, SEAP)
assaySetup: HEK-Blue cells overexpressing human TLR9, ODN2006 5 nM stimulation
For each entry below, report its pIC50 value.
// returns pIC50 (minus log10 of molar concentration), number only

-- ask Look up pIC50 for this molecule: COc1ccc(-c2[nH]c3ccc(-c4nnc(C5CCNC5)o4)cc3c2C(C)C)cc1OC (stereo not shown) [Example 48]
-- reply 5.63

-- ask Look up pIC50 for this molecule: Cc1cc(-c2[nH]c3ccc(-c4nc(C(=O)NCC5CCCCN5)co4)cc3c2C(C)C)cc(C)n1 (stereo not shown) [Example 287]
-- reply 6.40
